Quick list: pIC50 per entry.
# SYSTEM_UNDER_TEST: UniProt P43003
# Sequence (P43003 whole entry): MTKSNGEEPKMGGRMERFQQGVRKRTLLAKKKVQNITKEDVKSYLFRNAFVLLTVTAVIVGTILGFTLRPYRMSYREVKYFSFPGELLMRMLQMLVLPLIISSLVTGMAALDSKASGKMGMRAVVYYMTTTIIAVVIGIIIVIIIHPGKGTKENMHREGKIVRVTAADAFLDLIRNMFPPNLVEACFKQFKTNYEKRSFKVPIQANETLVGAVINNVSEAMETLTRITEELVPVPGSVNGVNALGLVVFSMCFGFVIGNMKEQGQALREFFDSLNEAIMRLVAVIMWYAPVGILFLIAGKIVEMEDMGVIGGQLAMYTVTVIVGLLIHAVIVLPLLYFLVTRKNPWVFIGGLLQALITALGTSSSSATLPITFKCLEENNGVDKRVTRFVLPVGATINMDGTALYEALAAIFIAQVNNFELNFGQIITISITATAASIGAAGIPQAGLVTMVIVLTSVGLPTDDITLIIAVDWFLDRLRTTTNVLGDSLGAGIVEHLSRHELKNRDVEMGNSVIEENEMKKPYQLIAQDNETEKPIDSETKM
# ASSAY_NAME: Inhibition of human EAAT1 expressed in HEK293 cells by [3H]D-Asp uptake assay
pIC50: −log10 of the molar value.

[
  {
    "MOLECULE": "N#CC1C(=N)OC2=C(C(=O)O[C@H](c3ccccc3)C2)[C@@H]1c1ccccc1 (relative stereo)",
    "pIC50": "< 3.52"
  },
  {
    "MOLECULE": "N=C1OC2=C(C(=O)CC(c3ccccc3)C2)C(c2ccccc2)C1C(N)=O (stereo not drawn)",
    "pIC50": "< 4.00"
  },
  {
    "MOLECULE": "N#CC1C(=N)OC2=C(C(=O)N[C@H](c3ccccc3)C2)[C@@H]1c1ccccc1 (relative stereo)",
    "pIC50": "< 3.50"
  }
]

---

# SYSTEM_UNDER_TEST: UniProt P43003
# ASSAY_NAME: Inhibition of human EAAT1 expressed in HEK293 cells by [3H]D-Asp uptake assay
pIC50: −log10 of the molar value.
MEASUREMENT_KIND: pIC50

[
  {
    "COMPOUND": "N=C1CC(c2ccccc2)C2=C(CC(c3ccccc3)CC2=O)O1 (stereo not given)",
    "RESULT": "< 4.00"
  },
  {
    "COMPOUND": "CC1CC(=O)C2=C(C1)OC(=N)C(C#N)C2c1ccc2c(c1)OCO2 (stereo not given)",
    "RESULT": "< 3.50"
  },
  {
    "COMPOUND": "N#CC1C(=N)OC2=C(C(=O)N[C@@H](c3ccccc3)C2)[C@@H]1c1ccccc1 (relative stereo)",
    "RESULT": "< 3.52"
  },
  {
    "COMPOUND": "N#CC1C(=N)OC2=C(C(=O)O[C@@H](c3ccccc3)C2)[C@@H]1c1ccccc1 (relative stereo)",
    "RESULT": "< 3.52"
  },
  {
    "COMPOUND": "COC(=O)C1C(=N)OC2=C(C(=O)CC(c3ccccc3)C2)C1c1ccccc1 (stereo not given)",
    "RESULT": "< 3.52"
  }
]
